These entries and their values trace back to ChEMBL document CHEMBL3431459.

assay: SUPPLEMENTARY: Lipophilicity (log D) Determination by high-throughput shake-flask; format: physicochemical; conditions: octanol/water
Entries and their logD

Known results for compounds:
{"columns": ["compound", "logD"],
 "data": [
  ["O=C1Cc2cc(-c3noc([C@H]4CCCCN4C(=O)COc4ccccc4)n3)ccc2N1", 2.93],
  ["Cc1cc(C)cc(S(=O)(=O)c2nn(CCC(=O)O)c3ccc(C(=O)Nc4ccccc4)cc23)c1", 1.94],
  ["COc1ccc(Cl)cc1S(=O)(=O)c1cn(CSC)c2ccc(C(=O)Nc3ccccc3)cc12", "> 3"],
  ["Cc1cc(C)cc(S(=O)(=O)N2CC[S+]([O-])c3ccc(C(=O)Nc4ccc(C(=O)O)cc4)cc32)c1 (centres undefined)", 0.1],
  ["Cc1cc(-c2nc([C@H]3CCCCN3C(=O)COc3ccccc3)no2)[nH]n1", 2.57]
]}

May I ask what logD has been recorded for "COc1ccc(Cl)cc1S(=O)(=O)N1CCc2ccc(C(=O)Nc3ccn(CC(=O)O)n3)cc21" ?
1.15

May I ask what logD has been recorded for COc1ccc(Cl)cc1S(=O)(=O)N1CC(C(=O)O)Oc2ccc(C(=O)Nc3ccccc3F)cc21 (centres undefined) ?
-0.49

May I ask what logD has been recorded for "O=C1Nc2ccc(-c3noc([C@H]4CCCCN4C(=O)COc4ccccc4)n3)cc2CO1" ?
2.89

May I ask what logD has been recorded for "COc1ccc(Cl)cc1S(=O)(=O)Nc1cc(C(=O)Nc2ccc(C(=O)O)cc2)cn(C)c1=O" ?
-0.34

====

target: Carnitine O-palmitoyltransferase 1, muscle isoform (Homo sapiens); assay: SUPPLEMENTARY: Inhibition of Carnitine palmitoyltransferase 1, muscle isoform
Sequence (Q92523 whole entry, canonical isoform): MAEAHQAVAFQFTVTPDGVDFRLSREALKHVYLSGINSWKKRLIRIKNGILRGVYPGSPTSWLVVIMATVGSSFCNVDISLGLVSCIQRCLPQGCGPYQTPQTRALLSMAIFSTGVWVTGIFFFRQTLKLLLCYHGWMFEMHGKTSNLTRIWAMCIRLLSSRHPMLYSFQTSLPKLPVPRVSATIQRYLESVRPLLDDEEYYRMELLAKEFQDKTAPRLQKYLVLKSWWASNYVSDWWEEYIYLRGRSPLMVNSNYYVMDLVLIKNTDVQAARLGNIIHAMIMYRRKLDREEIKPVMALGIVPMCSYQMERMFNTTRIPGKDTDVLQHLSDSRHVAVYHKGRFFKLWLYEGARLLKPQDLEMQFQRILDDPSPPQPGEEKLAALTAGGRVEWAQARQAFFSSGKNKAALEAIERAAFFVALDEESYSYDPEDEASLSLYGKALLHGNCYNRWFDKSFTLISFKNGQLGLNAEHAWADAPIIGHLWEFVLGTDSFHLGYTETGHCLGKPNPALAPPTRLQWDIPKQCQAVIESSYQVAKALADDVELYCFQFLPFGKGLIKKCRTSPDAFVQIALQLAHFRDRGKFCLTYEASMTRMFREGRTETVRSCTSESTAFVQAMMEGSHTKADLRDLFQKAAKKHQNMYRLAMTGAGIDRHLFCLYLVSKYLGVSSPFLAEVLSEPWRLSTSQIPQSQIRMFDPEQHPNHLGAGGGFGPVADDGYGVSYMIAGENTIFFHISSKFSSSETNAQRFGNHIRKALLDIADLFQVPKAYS
reportedMetric: IC50 (µM)
The figure you give is taken to be in µM; do not add the unit.

Known results for molecules:
{"columns": ["substanceSmiles", "measured"],
 "data": [
  ["COc1ccc(Cl)cc1S(=O)(=O)N1CCOc2c(F)cc(C(=O)Nc3nc(CC(=O)O)cs3)cc21", 0.741],
  ["Cc1cc(C)cc(S(=O)(=O)N2CCOc3ccc(C(=O)Nc4ccc(C(=O)O)c(F)c4)cc32)c1", 2.71],
  ["COc1ccc(Cl)cc1Sc1c[nH]c2ccc(C(=O)Nc3ccc(C(=O)O)cc3)cc12", 2.52],
  ["O=C(COc1ccccc1)N1CCCC[C@@H]1c1noc(-c2cccc3[nH][nH]c(=O)c23)n1", 7.62],
  ["Nc1ncc(Cl)c(-c2nc([C@H]3CCCCN3C(=O)COc3ccccc3)no2)n1", 63.8]
]}

What reported IC50 corresponds to "COc1ccc(C)cc1S(=O)(=O)N1CCCc2ccc(C(=O)Nc3ccc(C(=O)O)c(F)c3)cc21" on Carnitine O-palmitoyltransferase 1, muscle isoform (Homo sapiens)?
5.18

====

Entries and their pIC50
target: Carnitine O-palmitoyltransferase 2, mitochondrial (Rattus norvegicus)
Sequence (P18886 whole entry): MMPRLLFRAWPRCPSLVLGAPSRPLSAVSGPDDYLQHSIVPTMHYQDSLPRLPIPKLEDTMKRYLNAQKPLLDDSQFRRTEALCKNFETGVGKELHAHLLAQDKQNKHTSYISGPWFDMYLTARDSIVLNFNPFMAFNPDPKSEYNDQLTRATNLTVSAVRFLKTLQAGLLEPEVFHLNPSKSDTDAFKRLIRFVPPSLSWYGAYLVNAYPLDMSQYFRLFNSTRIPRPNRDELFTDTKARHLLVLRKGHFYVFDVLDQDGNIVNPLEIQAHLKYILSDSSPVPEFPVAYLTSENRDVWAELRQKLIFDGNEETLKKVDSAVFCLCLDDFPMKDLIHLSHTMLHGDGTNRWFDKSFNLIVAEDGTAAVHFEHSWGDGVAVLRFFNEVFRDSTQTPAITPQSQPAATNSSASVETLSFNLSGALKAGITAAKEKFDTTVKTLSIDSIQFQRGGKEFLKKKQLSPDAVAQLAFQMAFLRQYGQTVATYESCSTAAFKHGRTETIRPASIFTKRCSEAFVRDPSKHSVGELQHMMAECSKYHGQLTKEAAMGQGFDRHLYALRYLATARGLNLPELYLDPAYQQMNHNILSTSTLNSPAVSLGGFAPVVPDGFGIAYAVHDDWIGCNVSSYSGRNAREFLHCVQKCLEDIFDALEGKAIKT
pIC50: −log10 of the molar value.

{"columns": ["substanceSmiles", "subjectOfTest", "pIC50"],
 "data": [
  ["COc1ccc(Cl)cc1S(=O)(=O)c1nn(CC(=O)O)c2ccc(C(=O)Nc3ccccc3)cc12", "Carnitine O-palmitoyltransferase 2, mitochondrial (Rattus norvegicus)", "< 4.00"],
  ["Cc1sc([C@H]2CCCCN2C(=O)COc2ccccc2)nc1-c1cccc(C(=O)O)c1", "Carnitine O-palmitoyltransferase 2, mitochondrial (Rattus norvegicus)", "< 4.00"],
  ["CN1CCN(c2cc3c(cc2Cl)CN(C(=O)[C@H]2CCCCN2C(=O)COc2ccccc2)C3)CC1", "Carnitine O-palmitoyltransferase 2, mitochondrial (Rattus norvegicus)", 5.57],
  ["COCCN(c1cc(C(=O)Nc2ccc(CC(=O)O)cc2)cc2c1OCO2)S(=O)(=O)c1cc(Cl)ccc1OC", "Carnitine O-palmitoyltransferase 2, mitochondrial (Rattus norvegicus)", "< 4.00"]
]}

Next, consider the following compound.
What reported pIC50 corresponds to "O=C1CNc2ccc(-c3nc([C@H]4CCCCN4C(=O)COc4ccccc4)no3)cc2N1" on Carnitine O-palmitoyltransferase 2, mitochondrial (Rattus norvegicus)?
< 4.00
